Target: HiBit-WIZ fusion protein (Homo sapiens, UniProt O95785+Q96SW2)
Sequence (O95785 whole entry, the tested form may be a part): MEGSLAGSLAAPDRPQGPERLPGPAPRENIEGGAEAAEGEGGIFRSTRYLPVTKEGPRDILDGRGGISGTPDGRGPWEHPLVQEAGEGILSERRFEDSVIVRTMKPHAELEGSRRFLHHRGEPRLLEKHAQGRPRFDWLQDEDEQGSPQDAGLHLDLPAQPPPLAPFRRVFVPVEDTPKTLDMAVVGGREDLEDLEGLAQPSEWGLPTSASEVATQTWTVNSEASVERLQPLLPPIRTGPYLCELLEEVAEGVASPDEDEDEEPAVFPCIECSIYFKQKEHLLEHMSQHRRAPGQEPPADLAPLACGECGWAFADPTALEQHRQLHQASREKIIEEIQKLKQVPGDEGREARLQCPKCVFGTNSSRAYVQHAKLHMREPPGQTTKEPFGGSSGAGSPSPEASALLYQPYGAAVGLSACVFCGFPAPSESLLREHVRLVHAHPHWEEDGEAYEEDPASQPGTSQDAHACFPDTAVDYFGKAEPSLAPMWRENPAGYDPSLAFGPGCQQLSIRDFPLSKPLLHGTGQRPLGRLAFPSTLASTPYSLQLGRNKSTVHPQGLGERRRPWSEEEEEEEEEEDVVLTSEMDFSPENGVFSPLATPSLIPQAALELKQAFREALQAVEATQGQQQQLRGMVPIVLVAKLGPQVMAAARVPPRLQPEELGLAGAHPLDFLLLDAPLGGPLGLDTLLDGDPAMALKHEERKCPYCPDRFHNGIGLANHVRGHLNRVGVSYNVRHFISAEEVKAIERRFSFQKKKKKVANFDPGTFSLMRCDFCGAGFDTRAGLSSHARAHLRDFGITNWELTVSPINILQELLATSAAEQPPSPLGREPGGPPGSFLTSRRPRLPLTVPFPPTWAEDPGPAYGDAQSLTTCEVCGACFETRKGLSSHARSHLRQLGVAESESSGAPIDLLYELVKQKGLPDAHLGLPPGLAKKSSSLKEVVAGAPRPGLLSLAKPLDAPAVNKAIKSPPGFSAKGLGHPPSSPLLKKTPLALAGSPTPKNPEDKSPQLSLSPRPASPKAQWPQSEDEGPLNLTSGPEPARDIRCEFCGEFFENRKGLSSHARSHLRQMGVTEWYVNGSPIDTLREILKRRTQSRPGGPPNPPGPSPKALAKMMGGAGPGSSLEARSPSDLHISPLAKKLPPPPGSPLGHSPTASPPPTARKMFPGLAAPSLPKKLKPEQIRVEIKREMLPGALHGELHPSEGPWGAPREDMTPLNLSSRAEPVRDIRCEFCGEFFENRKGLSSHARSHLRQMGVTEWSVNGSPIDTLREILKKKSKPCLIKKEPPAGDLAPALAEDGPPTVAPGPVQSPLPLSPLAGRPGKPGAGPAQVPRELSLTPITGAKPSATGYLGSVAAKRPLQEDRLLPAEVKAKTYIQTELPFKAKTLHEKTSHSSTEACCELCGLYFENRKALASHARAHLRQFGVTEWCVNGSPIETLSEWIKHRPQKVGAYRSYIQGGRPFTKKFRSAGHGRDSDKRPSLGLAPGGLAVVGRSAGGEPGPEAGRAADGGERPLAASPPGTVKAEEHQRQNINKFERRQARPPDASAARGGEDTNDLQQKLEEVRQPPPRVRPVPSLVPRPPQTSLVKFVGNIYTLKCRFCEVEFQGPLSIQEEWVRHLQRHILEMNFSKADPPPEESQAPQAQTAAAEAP
Sequence (Q96SW2 whole entry, the tested form may be a part): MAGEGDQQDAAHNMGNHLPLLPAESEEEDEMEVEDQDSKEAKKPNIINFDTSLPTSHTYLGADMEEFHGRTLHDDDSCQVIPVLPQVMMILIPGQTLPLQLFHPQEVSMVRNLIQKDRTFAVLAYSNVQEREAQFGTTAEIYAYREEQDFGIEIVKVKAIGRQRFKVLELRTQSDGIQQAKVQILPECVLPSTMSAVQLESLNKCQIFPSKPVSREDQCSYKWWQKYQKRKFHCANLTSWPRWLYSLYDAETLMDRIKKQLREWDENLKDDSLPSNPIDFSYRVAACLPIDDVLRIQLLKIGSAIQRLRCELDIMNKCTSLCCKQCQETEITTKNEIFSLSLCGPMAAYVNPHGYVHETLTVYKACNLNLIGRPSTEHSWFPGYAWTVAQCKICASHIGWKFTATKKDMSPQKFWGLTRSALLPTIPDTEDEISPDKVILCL
Sequence (Q16531 whole entry partner, the tested form may be a part): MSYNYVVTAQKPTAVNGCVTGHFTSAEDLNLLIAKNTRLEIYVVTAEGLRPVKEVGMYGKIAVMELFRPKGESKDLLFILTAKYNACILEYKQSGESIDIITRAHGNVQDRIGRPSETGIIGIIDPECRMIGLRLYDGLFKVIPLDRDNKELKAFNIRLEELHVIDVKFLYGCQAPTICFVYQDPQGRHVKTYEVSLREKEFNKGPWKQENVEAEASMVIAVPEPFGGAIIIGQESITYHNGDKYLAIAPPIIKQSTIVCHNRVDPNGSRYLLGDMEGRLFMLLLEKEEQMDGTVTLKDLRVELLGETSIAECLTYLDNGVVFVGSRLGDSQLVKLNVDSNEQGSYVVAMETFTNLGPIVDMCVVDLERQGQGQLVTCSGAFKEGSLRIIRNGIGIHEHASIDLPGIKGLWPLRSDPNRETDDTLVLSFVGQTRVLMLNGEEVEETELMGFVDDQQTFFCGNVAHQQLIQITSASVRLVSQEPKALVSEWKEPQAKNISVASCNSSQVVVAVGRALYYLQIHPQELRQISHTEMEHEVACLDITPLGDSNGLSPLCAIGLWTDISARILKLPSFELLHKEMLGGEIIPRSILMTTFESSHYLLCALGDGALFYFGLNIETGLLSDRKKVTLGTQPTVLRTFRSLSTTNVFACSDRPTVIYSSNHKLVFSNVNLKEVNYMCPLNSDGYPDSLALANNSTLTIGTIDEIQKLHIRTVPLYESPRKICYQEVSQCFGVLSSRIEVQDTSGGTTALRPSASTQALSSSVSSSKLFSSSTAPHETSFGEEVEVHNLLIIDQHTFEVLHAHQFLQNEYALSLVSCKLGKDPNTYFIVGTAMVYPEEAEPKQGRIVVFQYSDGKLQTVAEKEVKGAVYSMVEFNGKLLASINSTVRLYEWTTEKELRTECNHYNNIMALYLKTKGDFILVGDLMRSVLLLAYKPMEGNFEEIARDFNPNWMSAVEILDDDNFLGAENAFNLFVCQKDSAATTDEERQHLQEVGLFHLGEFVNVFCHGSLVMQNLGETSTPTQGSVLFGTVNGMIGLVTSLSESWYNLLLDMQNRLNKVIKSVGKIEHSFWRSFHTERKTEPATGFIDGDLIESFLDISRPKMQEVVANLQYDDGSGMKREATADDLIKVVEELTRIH
Test: Quantification of WIZ protein levels in HiBit tag fusion protein assay (WIZ HiBit assay in 293T cells)
Format: cell-based
Settings: HEK-293T, DMSO-normalized, curve-fitted percentage of WIZ-HiBit remaining at 25 uM; 293T cells; read-out: WIZ Amax
measurement_kind: remaining activity at up to 25 µM (%)

Illustrative cases are given below, each with its answer.
Q: # remaining activity at up to 25 µM lookup, item COC(=O)[C@@H]1CC[C@H](CN2CCCC[C@@H]2COc2ccc3c(c2)CN(C2CCC(=O)NC2=O)C3=O)C1 (stereo partly shown) [Compound I-50bq]
Ans: 27.9

Q: # remaining activity at up to 25 µM lookup, item Cc1ncc(CN2CCCC[C@@H]2COc2ccc3c(c2)CN(C2CCC(=O)NC2=O)C3=O)[nH]1 (stereo partly shown) [Compound I-50bp]
Ans: 34.1

Q: # remaining activity at up to 25 µM lookup, item N#Cc1cccc(CN2CCCC[C@H]2COc2ccc3c(c2)CN(C2CCC(=O)NC2=O)C3=O)c1 (stereo partly shown) [Compound I-50bm]
Ans: 64

Q: # remaining activity at up to 25 µM lookup, item CCOC(=O)c1cccc2[nH]nc(CN3CCCC[C@@H]3COc3ccc4c(c3)CN(C3CCC(=O)NC3=O)C4=O)c12 (stereo partly shown) [Compound I-50er]
Ans: 10.2

Q: # remaining activity at up to 25 µM lookup, item O=C1CCC(N2Cc3cc(OC[C@@H]4CCCCN4C(=O)c4cccc(S(=O)(=O)O)c4)ccc3C2=O)C(=O)N1 (stereo partly shown) [Compound I-72a]
Ans: 88.8

(1) O=C1CCC(N2Cc3cc(OC[C@@H]4CCCCN4Cc4n[nH]c5ccc(Oc6cccnc6)cc45)ccc3C2=O)C(=O)N1 (stereo partly shown) [Compound I-50af]
(2) CCc1nc(C)c(CN2CCCC[C@H]2COc2ccc3c(c2)CN(C2CCC(=O)NC2=O)C3=O)[nH]1 (stereo partly shown) [Compound I-50cy]
Q: Min remaining activity at up to 25 µM? 1 | 2 Response format: the label of the selected entry.
Ans: 2

* * *

Biological target: HiBit-WIZ fusion protein (Homo sapiens, UniProt O95785+Q96SW2)
Assay: Quantification of WIZ protein levels in HiBit tag fusion protein assay (WIZ HiBit assay in 293T cells)
Format: cell-based
Settings: WIZ HiBit assay in 293T cells; 10-point, 5-fold dose response, highest concentration 25 μM, about 18 hours; read-out: WIZ AC50
measurement_kind: DC50 (µM)

Q: # DC50 lookup, item O=C1CCC(N2Cc3cc(OC[C@@H]4CCCCN4Cc4cccc(O)c4O)ccc3C2=O)C(=O)N1 (stereo partly shown) [Compound I-50bx]
Ans: 21

(I) O=C1CCC(N2Cc3cc(OC[C@@H]4CCCCN4CC4CCN(Cc5ccccc5)CC4)ccc3C2=O)C(=O)N1 (stereo partly shown) [Compound I-50aj]
(II) O=C1CCC(N2Cc3cc(OC[C@H]4CCCCN4Cc4ccncc4)ccc3C2=O)C(=O)N1 (stereo partly shown)
Q: Larger number for DC50: I , or II ? Response format: the label of the selected entry.
Ans: II

* * *

Target: HiBit-WIZ fusion protein (Homo sapiens, UniProt O95785+Q96SW2)
Test: Quantification of WIZ protein levels in HiBit tag fusion protein assay (WIZ HiBit assay in 293T cells)
Assay type: cell-based
Details: HEK-293T, DMSO-normalized, curve-fitted percentage of WIZ-HiBit remaining at 25 uM; 293T cells; read-out: WIZ Amax
measurement_kind: remaining activity at up to 25 µM (%)

Illustrative cases are given below, each with its answer.
Q: Reported remaining activity at up to 25 µM for HiBit-WIZ fusion protein (Homo sapiens, UniProt O95785+Q96SW2), given Cn1ccc(-c2cccc(C(=O)N3CCCC[C@H]3COc3ccc4c(c3)CN(C3CCC(=O)NC3=O)C4=O)c2)n1 (some centres unmarked) [Compound I-72id] ?
Ans: 89

Q: Reported remaining activity at up to 25 µM for HiBit-WIZ fusion protein (Homo sapiens, UniProt O95785+Q96SW2), given O=C1CCC(N2Cc3cc(OC[C@H]4CCCCN4Cc4cc(-n5nnnc5C(F)(F)F)ccc4O)ccc3C2=O)C(=O)N1 (some centres unmarked) [Compound I-50ei] ?
Ans: 68.6

Q: Reported remaining activity at up to 25 µM for HiBit-WIZ fusion protein (Homo sapiens, UniProt O95785+Q96SW2), given O=C1CCC(N2Cc3cc(OC[C@H]4CCCCN4Cc4ccc(N5CCN(CC6CC6)CC5)cc4)ccc3C2=O)C(=O)N1 (some centres unmarked) ?
Ans: 17.3

(P) Cc1nccn1-c1ccc(CN2CCCC[C@H]2COc2ccc3c(c2)CN(C2CCC(=O)NC2=O)C3=O)cc1 (some centres unmarked) [Compound I-50u]
(Q) Cc1nc[nH]c1CN1CCCC[C@H]1COc1ccc2c(c1)CN(C1CCC(=O)NC1=O)C2=O (some centres unmarked) [Compound I-50ac]
(R) Cc1cc(CN2CCCC[C@@H]2COc2ccc3c(c2)CN(C2CCC(=O)NC2=O)C3=O)no1 (some centres unmarked) [Compound I-50eq]
(S) O=C1CCC(N2Cc3cc(OC[C@@H]4CCCCN4Cc4ccc[nH]c4=O)ccc3C2=O)C(=O)N1 (some centres unmarked) [Compound I-50k]
(T) O=C1CCC(N2Cc3cc(OC[C@H]4CCCCN4Cc4ccc(-n5nccn5)cc4)ccc3C2=O)C(=O)N1 (some centres unmarked) [Compound I-50eg]
Q: Let's sort these by remaining activity at up to 25 µM, smallest first. Go ahead? Write the labels in rank order as requested.
Ans: T, Q, R, P, S
